molecular target: AgLsb4; assay: SPOT peptide array binding signal intensity (averaged, normalized) (arbitrary units (background-subtracted, floor 0; scale differs between SH3 domains)); higher = stronger binding of the SH3 domain to the peptide
propertyLabel: SPOT peptide array binding signal intensity
Keep the answer to the number alone.

Consider the worked cases shown below.
binder=RRSKSLPTTPGIRSG valuereported=128
binder=ITHRLRISIPGITGR valuereported=687
binder=WRPRIVPILPYITRL valuereported=22
binder=VATSTSPKLPPRGKQ valuereported=4510
binder=DLFKPLPEPPTELGR valuereported=5

Entry NILKRRPLKLEAPSK , SPOT peptide array binding signal intensity reported as 41

Entry NPLPKEPRLPKRKVA , SPOT peptide array binding signal intensity reported as 2040

Entry KKIRLIFTYPSTVGR , SPOT peptide array binding signal intensity reported as 577

Entry VAPPPLPNRQLPNLD , SPOT peptide array binding signal intensity reported as 5100

Entry RSVKRPRRAPRPVVS , SPOT peptide array binding signal intensity reported as 150

Entry NIKVLLNPKLGKPVK , SPOT peptide array binding signal intensity reported as 61

Cited source for all entries: the supplement of paper PMC4466140
